# testedOn: HTRA1, Q92743
# Sequence (Q92743 360-477): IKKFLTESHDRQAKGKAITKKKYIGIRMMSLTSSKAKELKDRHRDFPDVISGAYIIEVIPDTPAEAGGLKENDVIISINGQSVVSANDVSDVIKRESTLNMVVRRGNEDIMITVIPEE
# testName: holdup assay
# Design: key: below the threshold = too weak to quantify, mostly under pKd 3.1 to 4
# conditionSummary: plain residues with an end cap or a label only (N-terminal biotin on a linker: ahx)
testReadout: pKd

[[record]]
binder = "HTHSYIETHV [CNKSR2, Q8WXI2]"
value = 3.84

[[record]]
binder = "QDEKVKESYV [ABCA1, O95477]"
value = 4.28

[[record]]
binder = "TEAKLTETNA [MYO18A, Q92614]"
value = "below the threshold"

[[record]]
binder = "TESNLQTSSC [CGN, Q9P2M7]"
value = "below the threshold"

[[record]]
binder = "QNTDDVQTSF [ACE2, Q9BYF1]"
value = "below the threshold"

[[record]]
binder = "TQKFRASTAL [FRMPD1, Q5SYB0]"
value = "below the threshold"

[[record]]
binder = "APSRKLNTEI [TIAM1, Q13009]"
value = "below the threshold"

[[record]]
binder = "QPRTWLQSPV [RTKN, Q9BST9]"
value = "below the threshold"


Could you now look at the following binder, please?
input: Please report pKd for the following binder: EKQAKGDTEF [CACYBP, Q9HB71]
output: below the threshold

Values compiled from paper PMC9482650.
